Assay: Vero cell viability, MTT test, 72 h
Type: cell-based, African green monkey
Settings: African green monkey, Vero cells, +F127 (Pluronic F-127); 100 µM/L; Vero, MTT, 3 days; read-out: Viability % ±s.d.
Could you please report measured viability at 72 h, 100 µM for the items listed next?
Reply numerically in %, unit not repeated.

Task: Quick one: viability at 72 h, 100 µM for C[n+]1ccc(-c2c3nc(c(-c4cc[n+](C)cc4)c4ccc([nH]4)c(-c4cc[n+](C)cc4)c4nc(c(-c5cc[n+](C)cc5)c5ccc2[nH]5)C=C4)C=C3)cc1 [TMePyP, reference compound] ?
Output: 104

Task: Quick one: viability at 72 h, 100 µM for O=C(CC[n+]1ccccc1)Oc1ccc(-c2c3nc(c(-c4ccc(OC(=O)CC[n+]5ccccc5)cc4)c4ccc([nH]4)c(-c4ccc(OC(=O)CC[n+]5ccccc5)cc4)c4nc(c(-c5ccc(OC(=O)CC[n+]6ccccc6)cc5)c5ccc2[nH]5)C=C4)C=C3)cc1 ?
Output: 80.4
